target: Mu-type opioid receptor (Homo sapiens, UniProt P35372); note: assay procedure not described here
Sequence (P35372 whole entry): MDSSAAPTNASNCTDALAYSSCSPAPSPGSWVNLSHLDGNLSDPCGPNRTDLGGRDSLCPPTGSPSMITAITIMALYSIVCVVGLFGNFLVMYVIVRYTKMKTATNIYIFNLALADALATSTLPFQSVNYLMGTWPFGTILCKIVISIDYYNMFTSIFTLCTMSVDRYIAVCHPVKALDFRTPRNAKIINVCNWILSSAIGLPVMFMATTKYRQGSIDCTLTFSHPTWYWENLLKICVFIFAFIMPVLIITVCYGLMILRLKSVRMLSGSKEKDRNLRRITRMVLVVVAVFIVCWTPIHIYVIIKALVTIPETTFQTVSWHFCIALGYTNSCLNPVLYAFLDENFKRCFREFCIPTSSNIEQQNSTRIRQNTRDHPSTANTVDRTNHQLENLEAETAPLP
// AC50 lookup, one value per entry
metric name: AC50

{"molecule": "COC(=O)C1=C(C)NC(C)=C(C(=O)O[C@H]2CCN(Cc3ccccc3)C2)[C@H]1c1cccc([N+](=O)[O-])c1", "reported result": "3.24 µM"}
{"molecule": "C[C@H]1O[C@@H](O[C@H]2[C@@H](O)C[C@H](O[C@H]3[C@@H](O)C[C@H](O[C@H]4CC[C@@]5(C)[C@H](CC[C@@H]6[C@@H]5CC[C@]5(C)[C@@H](C7=CC(=O)OC7)CC[C@]65O)C4)O[C@@H]3C)O[C@@H]2C)C[C@H](O)[C@@H]1O", "reported result": "> 30 µM"}
{"molecule": "CCOC(=O)[C@H](CCc1ccccc1)N[C@H]1CS[C@H](c2cccs2)CN(CC(=O)O)C1=O", "reported result": "> 30 µM"}
{"molecule": "N[C@@H](CSSC[C@H](N)C(=O)O)C(=O)O", "reported result": "> 30 µM"}
{"molecule": "C[C@@H]1C[C@H]2[C@@H]3CCC4=CC(=O)C=C[C@]4(C)C3=CC[C@]2(C)[C@H]1C(=O)CN1CCN(c2cc(N3CCCC3)nc(N3CCCC3)n2)CC1", "reported result": "> 30 µM"}
{"molecule": "CCC(=O)O[C@]1(C(=O)COC(C)=O)CC[C@H]2[C@@H]3CCC4=CC(=O)CC[C@]4(C)[C@H]3[C@@H](O)C[C@@]21C [HYDROCORTISONE ACEPONATE]", "reported result": "> 30 µM"}
{"molecule": "NC(=O)NCCC[C@H](N)C(=O)O", "reported result": "> 30 µM"}
{"molecule": "CN(C)CCCN1C(=O)c2cc([N+](=O)[O-])ccc2Oc2ccccc21", "reported result": "> 30 µM"}
{"molecule": "CN1CCC[C@@H]1Cc1c[nH]c2ccc(CCS(=O)(=O)c3ccccc3)cc12", "reported result": "8 µM"}
{"molecule": "N=C(N)NCc1cccc([123I])c1", "reported result": "22 µM"}
{"molecule": "O=C(O)COc1nn(Cc2ccccc2)c2ccccc12", "reported result": "> 30 µM"}
{"molecule": "CC(=O)OCC[N+](C)(C)C", "reported result": "> 30 µM"}
{"molecule": "COc1nccnc1NS(=O)(=O)c1ccc(N)cc1", "reported result": "> 30 µM"}
{"molecule": "CC(C)(C)C(=O)NCCCC(=O)O", "reported result": "> 30 µM"}
{"molecule": "CN(CC(=O)O)C(=N)N", "reported result": "> 30 µM"}
{"molecule": "Cc1nnc(SCC2=C(C(=O)O)N3C(=O)[C@@H](NC(=O)Cn4cc(Cl)c(=O)c(Cl)c4)[C@H]3SC2)s1", "reported result": "> 30 µM"}
{"molecule": "Nc1ccncc1", "reported result": "> 30 µM"}
